Reference for the values: patent US20240368214A1

# Assay Target: recombinant human GluN1/GluN2A receptor (Homo sapiens, UniProt Q05586+Q12879)
# Construct: expressed in transfected cells; host or cells: HEK293, tetracycline-inducible expression
# Sequence (Q12879 23-1464, other chains not shown): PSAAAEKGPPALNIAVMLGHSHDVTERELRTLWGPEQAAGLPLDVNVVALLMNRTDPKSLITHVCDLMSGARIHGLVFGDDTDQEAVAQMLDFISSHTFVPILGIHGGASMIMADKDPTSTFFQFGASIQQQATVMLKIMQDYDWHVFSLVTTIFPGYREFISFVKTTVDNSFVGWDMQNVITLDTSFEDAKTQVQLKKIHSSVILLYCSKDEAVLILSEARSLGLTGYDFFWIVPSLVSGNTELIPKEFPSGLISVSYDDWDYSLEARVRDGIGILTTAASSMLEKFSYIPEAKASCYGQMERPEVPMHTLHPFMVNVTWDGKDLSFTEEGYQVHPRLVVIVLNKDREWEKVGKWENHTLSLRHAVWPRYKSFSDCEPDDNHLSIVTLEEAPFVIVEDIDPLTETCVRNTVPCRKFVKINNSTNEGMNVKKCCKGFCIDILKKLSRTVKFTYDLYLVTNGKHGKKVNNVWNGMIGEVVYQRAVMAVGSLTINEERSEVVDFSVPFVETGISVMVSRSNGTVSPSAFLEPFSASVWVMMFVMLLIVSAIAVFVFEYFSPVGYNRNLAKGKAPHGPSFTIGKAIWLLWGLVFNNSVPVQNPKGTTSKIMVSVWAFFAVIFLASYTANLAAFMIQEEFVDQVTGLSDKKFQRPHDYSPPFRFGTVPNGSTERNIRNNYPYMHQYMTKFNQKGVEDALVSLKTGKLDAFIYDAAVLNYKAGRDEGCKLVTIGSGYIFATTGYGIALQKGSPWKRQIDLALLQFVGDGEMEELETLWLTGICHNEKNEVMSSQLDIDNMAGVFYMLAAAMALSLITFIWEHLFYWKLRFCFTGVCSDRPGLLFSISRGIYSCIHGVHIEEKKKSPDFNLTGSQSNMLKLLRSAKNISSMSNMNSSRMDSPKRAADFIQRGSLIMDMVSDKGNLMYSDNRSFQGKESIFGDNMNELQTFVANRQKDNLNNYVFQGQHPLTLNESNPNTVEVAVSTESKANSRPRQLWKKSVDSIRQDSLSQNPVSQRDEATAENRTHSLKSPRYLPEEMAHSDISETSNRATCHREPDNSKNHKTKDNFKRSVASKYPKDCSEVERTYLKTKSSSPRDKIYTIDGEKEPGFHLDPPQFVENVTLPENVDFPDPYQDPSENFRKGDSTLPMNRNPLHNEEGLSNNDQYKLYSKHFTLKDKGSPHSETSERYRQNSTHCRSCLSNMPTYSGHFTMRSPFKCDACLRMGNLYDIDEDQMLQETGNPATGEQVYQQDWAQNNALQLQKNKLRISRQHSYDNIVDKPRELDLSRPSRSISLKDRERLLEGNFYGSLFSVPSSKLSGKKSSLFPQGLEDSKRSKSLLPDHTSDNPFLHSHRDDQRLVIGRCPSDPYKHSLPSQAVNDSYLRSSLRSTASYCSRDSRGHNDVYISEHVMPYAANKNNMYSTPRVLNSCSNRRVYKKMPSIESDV
# Protocol Text: Whole-cell patch clamp of mammalian cells (Syncropatch 384i), NMDA modulation
# Type: cell-based
# Condition Description: Table A-2; HEK293 cells, human GluN1/GluN2A; glutamate 1 μM / glycine 100 μM; -80 mV; peak amplitude increase; read-out: EC50
Reported Endpoint: EC50

stdin: Recorded EC50 of CC[C@]1(O)CC[C@@]2(C)C(=CC[C@H]3[C@@H]4CC[C@H]([C@@H](CCCC(C)(C)O)OC)[C@@]4(C)CC[C@@H]32)C1 [Compound A-12] , please.
stdout: 1 to 100 nM

stdin: Recorded EC50 of CC[C@]1(O)CC[C@@]2(C)[C@@H](CC[C@@H]3[C@@H]2CC[C@]2(C)[C@@H](C(C#N)CCCC(C)(C)O)CC[C@@H]32)C1 (stereo partly shown) [Compound A-8] , please.
stdout: 1 to 100 nM

stdin: Recorded EC50 of CC[C@@H](CCCC(C)(C)O)[C@H]1CC[C@H]2[C@@H]3CC[C@H]4C[C@](O)(CC)CC[C@]4(C)[C@H]3CC[C@]12C [Compound A-20] , please.
stdout: > 1000 nM

stdin: Recorded EC50 of CC[C@]1(O)CC[C@@]2(C)C(=CC[C@H]3[C@@H]4CC[C@H]([C@@H](CC[C@](C)(O)C(F)(F)F)OC)[C@@]4(C)CC[C@@H]32)C1 [Compound A-14] , please.
stdout: 1 to 100 nM

---

# Assay Target: recombinant human GluN1/GluN2A receptor (Homo sapiens, UniProt Q05586+Q12879)
# Construct: expressed in transfected cells; host or cells: HEK293, tetracycline-inducible expression
# Protocol Text: Whole-cell patch clamp of mammalian cells (Syncropatch 384i), NMDA modulation
# Assay type: cell-based
# Condition Description: Table B-2; HEK293 cells, human GluN1/GluN2A; glutamate 1 μM / glycine 100 μM; -80 mV; peak amplitude increase; read-out: EC50
Reported Endpoint: EC50

stdin: Recorded EC50 of CC[C@]1(O)CC[C@@]2(C)[C@@H](CC[C@H]3[C@@H]4[C@H](C5CC5)C[C@H]([C@H](C)CCCC(C)(C)O)[C@@]4(C)CC[C@@H]32)C1 [Compound B-17] , please.
stdout: 100 to 500 nM

stdin: Recorded EC50 of CC[C@]1(O)CC[C@@]2(C)C(=CC[C@H]3[C@@H]4[C@@H]5C[C@@H]5[C@H]([C@H](C)CCCC(C)(C)O)[C@@]4(C)CC[C@@H]32)C1 [Compound B-20] , please.
stdout: 1 to 100 nM

stdin: Recorded EC50 of CC[C@]1(O)CC[C@@]2(C)[C@@H](CC[C@H]3[C@@H]4[C@H](C)C[C@H]([C@H](C)CCCC(C)(C)O)[C@@]4(C)CC[C@@H]32)C1 [Compound B-18] , please.
stdout: 1 to 100 nM

stdin: Recorded EC50 of CC[C@]1(O)CC[C@@]2(C)[C@@H](CC[C@H]3[C@@H]4[C@H]5C[C@H]5[C@H]([C@H](C)CC[C@@](C)(O)C(F)(F)F)[C@@]4(C)CC[C@@H]32)C1 [Compound B-7] , please.
stdout: 100 to 500 nM

stdin: Recorded EC50 of CC[C@]1(O)CC[C@@]2(C)[C@@H](CC[C@@H]3[C@@H]2CC[C@@]2(C)[C@H]3C[C@H]3C[C@]32[C@H](C)CC[C@](C)(O)C(F)(F)F)C1 [Compound B-10] , please.
stdout: 1 to 100 nM

stdin: Recorded EC50 of CC[C@]1(O)CC[C@@]2(C)[C@@H](CC[C@@H]3[C@@H]2CC[C@]2(C)[C@@H]([C@H](C)CC[C@H](O)C(C)C)[C@H](C)C[C@@H]32)C1 [Compound B-23] , please.
stdout: 1 to 100 nM

stdin: Recorded EC50 of CC[C@]1(O)CC[C@@]2(C)[C@@H](CC[C@H]3[C@@H]4[C@H]5C[C@H]5[C@H]([C@H](C)CCC(C)(C)O)[C@@]4(C)CC[C@@H]32)C1 [Compound B-6] , please.
stdout: 100 to 500 nM

stdin: Recorded EC50 of CC[C@]1(O)CC[C@@]2(C)C(=CC[C@H]3[C@@H]4[C@H](C)C[C@H]([C@H](C)CCCC(C)(C)O)[C@@]4(C)CC[C@@H]32)C1 [Compound B-21] , please.
stdout: 1 to 100 nM

stdin: Recorded EC50 of CC[C@]1(O)CC[C@@]2(C)[C@@H](CC[C@H]3[C@@H]4[C@@H](C5CC5)C[C@H]([C@H](C)CCCC(C)(C)O)[C@@]4(C)CC[C@@H]32)C1 [Compound B-19] , please.
stdout: 100 to 500 nM

stdin: Recorded EC50 of CC[C@]1(O)CC[C@@]2(C)[C@@H](CC[C@H]3[C@@H]4[C@@H]5C[C@@H]5[C@H]([C@H](C)CCCC(C)(C)O)[C@@]4(C)CC[C@@H]32)C1 [Compound B-1] , please.
stdout: 1 to 100 nM

---

# Assay Target: recombinant human GluN1/GluN2A receptor (Homo sapiens, UniProt Q05586+Q12879)
# Construct: expressed in transfected cells; host or cells: HEK293, tetracycline-inducible expression
# Protocol Text: Whole-cell patch clamp of mammalian cells (Syncropatch 384i), NMDA modulation
# Type: cell-based
# Condition Description: Table E-2; HEK293 cells, human GluN1/GluN2A; glutamate 1 μM / glycine 100 μM; -80 mV; peak amplitude increase
Exercise: state measured Emax for each of the compounds provided.

stdin: Recorded Emax of CC[C@]1(O)CC[C@]2(C)C3=CC[C@]4(C)[C@@H]([C@H](C)CCC(C)(C)O)CC[C@H]4[C@@H]3CC[C@H]2C1 , please.
stdout: 100 to 200%

stdin: Recorded Emax of CC[C@]1(O)CC[C@]2(C)C3=CC[C@]4(C)[C@@H]([C@H](C)CC[C@@H](O)C(C)C)CC[C@H]4[C@@H]3CC[C@H]2C1 , please.
stdout: > 200%

stdin: Recorded Emax of CC[C@]1(O)CC[C@]2(C)C3=CC[C@]4(C)[C@@H]([C@H](C)CC[C@@]5(O)CCOC5)CC[C@H]4[C@@H]3CC[C@H]2C1 , please.
stdout: > 200%
